For each of the compounds below, state its MIC.
Tested on: S. maltophilia DSM 50170
Experiment: microbe, parasite or virus in culture
Type: cell-based, Stenotrophomonas maltophilia
Conditions: DSM 50170, 48 h
Where a SMILES comes first, the peptide text is derived from it. [ ]: non-standard residue; d: D form. Dap = NC[C@H](N)C(=O)O; Aib = CC(C)(N)C(=O)O

CC[C@H](C)[C@H](NC(=O)CNC(=O)[C@@H](N)Cc1c[nH]c2ccccc12)C(=O)N[C@@H](CCCNC(=N)N)C(=O)N[C@@H](CCCNC(=N)N)C(=O)N[C@H](C(=O)N[C@@H](CC(C)C)C(=O)N[C@@H](CCCCN)C(=O)N[C@@H](Cc1ccc(O)cc1)C(=O)NCC(=O)N[C@@H](CCCCN)C(=O)N[C@@H](CCCNC(=N)N)C(=O)N[C@H](CO)C(=O)N[C@@H](CCCCN)C(N)=O)[C@@H](C)CC [WMR-2] (H-WGIRRILKYGKR[dS]K-NH2) :: > 50 µM
CC[C@H](C)[C@H](NC(=O)CNC(=O)[C@@H](N)Cc1c[nH]c2ccccc12)C(=O)N[C@@H](CCCNC(=N)N)C(=O)N[C@@H](CCCNC(=N)N)C(=O)N[C@H](C(=O)N[C@@H](CC(C)C)C(=O)N[C@@H](CCCCN)C(=O)N[C@@H](Cc1ccc(O)cc1)C(=O)NCC(=O)N[C@@H](CCCCN)C(=O)N[C@@H](CCCNC(=N)N)C(=O)N[C@@H](CO)C(=O)N[C@H](CCCCN)C(N)=O)[C@@H](C)CC [WMR-1] (H-WGIRRILKYGKRS[dK]-NH2) :: > 50 µM
CC[C@H](C)[C@H](NC(=O)CNC(=O)[C@@H](N)Cc1c[nH]c2ccccc12)C(=O)N[C@@H](CCCNC(=N)N)C(=O)N[C@@H](CCCNC(=N)N)C(=O)N[C@H](C(=O)N[C@@H](CC(C)C)C(=O)N[C@@H](CCCCN)C(=O)N[C@@H](Cc1ccc(O)cc1)C(=O)NCC(=O)N[C@@H](CCCCN)C(=O)N[C@@H](CCCNC(=N)N)C(=O)N[C@@H](CO)C(=O)N[C@@H](CCCCN)C(N)=O)[C@@H](C)CC [WMR] (H-WGIRRILKYGKRSK-NH2) :: 50 µM
CC[C@H](C)[C@H](NC(=O)[C@H](CCCNC(=N)N)NC(=O)[C@H](CCCNC(=N)N)NC(=O)[C@@H](NC(=O)C(C)(C)NC(=O)[C@@H](N)Cc1c[nH]c2ccccc12)[C@@H](C)CC)C(=O)N[C@@H](CC(C)C)C(=O)N[C@@H](CCCCN)C(=O)N[C@@H](Cc1ccc(O)cc1)C(=O)NCC(=O)N[C@@H](CCCCN)C(=O)N[C@@H](CCCNC(=N)N)C(=O)N[C@@H](CO)C(=O)N[C@@H](CCCCN)C(N)=O [WMR-3] (H-W[Aib]IRRILKYGKRSK-NH2) :: > 50 µM
CC[C@H](C)[C@H](NC(=O)CNC(=O)[C@@H](N)Cc1c[nH]c2ccccc12)C(=O)N[C@@H](CCCNC(=N)N)C(=O)N[C@@H](CCCNC(=N)N)C(=O)N[C@H](C(=O)N[C@@H](CC(C)C)C(=O)N[C@@H](CCCCN)C(=O)N[C@@H](Cc1ccc(O)cc1)C(=O)NCC(=O)N[C@@H](CCCCN)C(=O)N[C@@H](CCCNC(=N)N)C(=O)N[C@@H](CO)C(=O)N[C@@H](CN)C(N)=O)[C@@H](C)CC [WMR-5] (H-WGIRRILKYGKRS[Dap]-NH2) :: 25 µM

Switching to the query record.
Query (compound): CC[C@H](C)[C@H](NC(=O)[C@H](CCCNC(=N)N)NC(=O)[C@H](CCCNC(=N)N)NC(=O)[C@@H](NC(=O)C(C)(C)NC(=O)[C@@H](N)Cc1c[nH]c2ccccc12)[C@@H](C)CC)C(=O)N[C@@H](CC(C)C)C(=O)N[C@@H](CCCCN)C(=O)N[C@@H](Cc1ccc(O)cc1)C(=O)NCC(=O)N[C@@H](CCCCN)C(=O)N[C@@H](CCCNC(=N)N)C(=O)N[C@H](CO)C(=O)N[C@H](CCCCN)C(N)=O [WMR-4] (H-W[Aib]IRRILKYGKR[dS][dK]-NH2) ; field requested: MIC 25 µM

----------
Assay: in vitro
Format: in vitro ADME, bovine
Conditions: serum
Where a SMILES comes first, the peptide text is derived from it.
readout_name: remaining at 1 h, 200 μM (%)
One number for each entry, in %.

Looking for the measured remaining at 1 h, 200 μM of CC[C@H](C)[C@H](NC(=O)CNC(=O)[C@@H](N)Cc1c[nH]c2ccccc12)C(=O)N[C@@H](CCCNC(=N)N)C(=O)N[C@@H](CCCNC(=N)N)C(=O)N[C@H](C(=O)N[C@@H](CC(C)C)C(=O)N[C@@H](CCCCN)C(=O)N[C@@H](Cc1ccc(O)cc1)C(=O)NCC(=O)N[C@@H](CCCCN)C(=O)N[C@@H](CCCNC(=N)N)C(=O)N[C@@H](CO)C(=O)N[C@@H](CCCCN)C(N)=O)[C@@H](C)CC [WMR] (H-WGIRRILKYGKRSK-NH2) , can you help? 68

----------
Experiment: in vitro
Assay type: in vitro ADME, bovine
Details: serum
Where a SMILES comes first, the peptide text is derived from it.
readout_name: remaining at 3 h, 200 μM (%)
One number for each entry, in %.

Entry under review: CC[C@H](C)[C@H](NC(=O)CNC(=O)[C@@H](N)Cc1c[nH]c2ccccc12)C(=O)N[C@@H](CCCNC(=N)N)C(=O)N[C@@H](CCCNC(=N)N)C(=O)N[C@H](C(=O)N[C@@H](CC(C)C)C(=O)N[C@@H](CCCCN)C(=O)N[C@@H](Cc1ccc(O)cc1)C(=O)NCC(=O)N[C@@H](CCCCN)C(=O)N[C@@H](CCCNC(=N)N)C(=O)N[C@@H](CO)C(=O)N[C@@H](CCCCN)C(N)=O)[C@@H](C)CC [WMR] (H-WGIRRILKYGKRSK-NH2) . Reported remaining at 3 h, 200 μM? 36
